Here, each record is paired with measured Concentration that increased triangulation (APD90-APD30) of the action potential data.
- Test system: human induced pluripotent stem cell-derived cardiomyocytes (hiPSC-CM)
- assay-notes: Action potential recordings in hiPSC-CM with voltage sensitive dye (FluoVolt, CellOPTIQ)
- Assay type: cell-based
- test-conditions: hiPSC-CM, 30 min exposure
# value in nM; strip the unit string

### Prompt Data request, read-out Concentration that increased triangulation (APD90-APD30) of the action potential, for CN(C)CCC[C@@]1(c2ccc(F)cc2)OCc2cc(C#N)ccc21
### Response 60

### Prompt Entry CN(C)CCC[C@]1(c2ccc(F)cc2)OCc2cc(C#N)ccc21 please
### Response 180

### Prompt Entry CNCCC[C@]1(c2ccc(F)cc2)OCc2cc(C#N)ccc21 please
### Response 2000

### Prompt Entry CNCCC[C@@]1(c2ccc(F)cc2)OCc2cc(C#N)ccc21 please
### Response 150
